# Tested On: UniProt P50406
# Sequence (P50406 whole entry): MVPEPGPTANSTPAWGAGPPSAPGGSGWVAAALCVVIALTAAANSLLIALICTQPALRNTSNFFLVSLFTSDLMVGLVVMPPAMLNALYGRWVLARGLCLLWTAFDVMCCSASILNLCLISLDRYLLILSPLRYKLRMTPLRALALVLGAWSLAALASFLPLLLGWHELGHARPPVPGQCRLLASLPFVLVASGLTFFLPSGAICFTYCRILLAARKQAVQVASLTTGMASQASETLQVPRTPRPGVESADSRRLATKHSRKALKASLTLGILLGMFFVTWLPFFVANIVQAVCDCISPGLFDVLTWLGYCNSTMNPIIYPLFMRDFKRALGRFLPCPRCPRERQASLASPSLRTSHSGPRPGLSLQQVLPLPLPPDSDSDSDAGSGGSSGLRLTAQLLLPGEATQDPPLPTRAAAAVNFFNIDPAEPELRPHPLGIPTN
Counter-ions that a name gives are not always drawn.

# Compound, Ki
measured = [
    ("O=S(=O)(c1ccccc1)c1cn(C[C@H]2CCCN2)c2ncccc12 [Example 3, Hydrochloride]", "12 nM"),
    ("O=S(=O)(c1ccccc1)c1cn(C[C@@H]2CCCN2)c2ncccc12 [Example 4, Hydrochloride]", "66 nM"),
    ("O=S(=O)(c1cn(CC2CCCN2Cc2ccccc2)c2ncccc12)c1c(Cl)nc2sccn12 (stereo not drawn)", "57 nM"),
    ("CN1CCCC1Cn1cc(S(=O)(=O)c2cccc(Cl)c2)c2cccnc21 (stereo not drawn) [Example 8, Hydrochloride]", "7 nM"),
    ("O=S(=O)(c1cccc(F)c1)c1cn(CC2CCCN2Cc2ccccc2)c2ncccc12 (stereo not drawn)", "174 nM"),
    ("CN1CCCC1Cn1cc(S(=O)(=O)c2cccc(F)c2)c2cccnc21 (stereo not drawn)", "6 nM"),
]
